# TEST_SYSTEM: recombinant human IDE (Homo sapiens, UniProt P14735)
# Sequence (P14735 whole entry): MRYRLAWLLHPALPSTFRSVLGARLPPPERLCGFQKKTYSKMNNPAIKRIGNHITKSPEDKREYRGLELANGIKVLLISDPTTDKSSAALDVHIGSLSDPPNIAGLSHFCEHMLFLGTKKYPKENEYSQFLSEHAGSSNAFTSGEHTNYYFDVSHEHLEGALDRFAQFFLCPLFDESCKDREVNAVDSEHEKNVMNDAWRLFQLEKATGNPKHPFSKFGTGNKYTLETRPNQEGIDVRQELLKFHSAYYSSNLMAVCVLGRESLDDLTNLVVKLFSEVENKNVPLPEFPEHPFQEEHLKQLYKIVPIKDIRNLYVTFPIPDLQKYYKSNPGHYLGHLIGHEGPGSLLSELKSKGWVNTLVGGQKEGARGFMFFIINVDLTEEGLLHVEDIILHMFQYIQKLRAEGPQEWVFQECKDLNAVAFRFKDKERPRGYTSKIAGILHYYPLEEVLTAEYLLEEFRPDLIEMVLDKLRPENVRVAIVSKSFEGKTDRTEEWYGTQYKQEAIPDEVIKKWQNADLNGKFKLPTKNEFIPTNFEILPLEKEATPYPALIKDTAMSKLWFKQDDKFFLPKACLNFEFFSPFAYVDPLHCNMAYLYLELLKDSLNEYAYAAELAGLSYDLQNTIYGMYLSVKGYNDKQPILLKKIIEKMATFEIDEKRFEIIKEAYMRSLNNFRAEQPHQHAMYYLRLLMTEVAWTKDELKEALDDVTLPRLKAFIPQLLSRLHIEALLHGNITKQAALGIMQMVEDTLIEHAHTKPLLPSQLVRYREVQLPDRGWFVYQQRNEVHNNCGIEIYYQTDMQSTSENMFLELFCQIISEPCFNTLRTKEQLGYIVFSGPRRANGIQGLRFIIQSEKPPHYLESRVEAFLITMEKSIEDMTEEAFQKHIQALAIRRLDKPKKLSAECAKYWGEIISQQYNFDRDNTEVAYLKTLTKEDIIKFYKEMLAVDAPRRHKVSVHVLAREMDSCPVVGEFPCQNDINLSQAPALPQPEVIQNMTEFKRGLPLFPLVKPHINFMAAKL
# ASSAY_NAME: IDE substrate V fluorescence dequenching assay
# Format: biochemical
# PROTOCOL_CONDITIONS: read-out: Ki V; fluorogenic peptide substrate V; Ki from IC50 via Cheng-Prusoff
METRIC: Ki (µM)

Some compounds with recorded Ki:
NS(=O)(=O)c1cccn(O)c1=S [Compound 8, 3-sulfonamide-1,2-HOPTO] = 19
O=S(=O)(Nc1cccn(O)c1=S)c1ccc(Cl)s1 [Compound 43] = 13

I. O=S(=O)(Nc1cccn(O)c1=S)c1ccc(Br)s1 [Compound 44]
II. On1ccccc1=S [Compound 5, 1,2-hydroxypyridinethione]
Hi, I'm comparing two records. Which one has the lower Ki, I or II ? Mark your selection by writing its label.
I
